Biological target: T1, monomeric recombinant cynomologus monkey Notch3 extracellular domain (containing EGF like domains 1-12) … (cynomologus monkey)
T1 construct: domain: EGF like domains 1-12; also called monomeric rcNotch3
Assay: SPR BIAcore T100, antibody captured by anti-human IgG Fc, monomeric rcNotch3 analyte, 25 C
parameter: koff (s⁻¹)
One number for each entry, in s⁻¹.

For the 3 binders below, give their koff values.
1. Hu4F11-70 (antibody, human IgG1, kappa, V domains shown, Humanized, human IgG1 kappa; Hv3-23 A28T S31H T62S heavy + Kv2D-29 N28H kappa) VH: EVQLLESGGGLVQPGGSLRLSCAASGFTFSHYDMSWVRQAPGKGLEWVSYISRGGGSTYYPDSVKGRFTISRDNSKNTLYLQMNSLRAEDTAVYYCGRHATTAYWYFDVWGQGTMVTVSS VL: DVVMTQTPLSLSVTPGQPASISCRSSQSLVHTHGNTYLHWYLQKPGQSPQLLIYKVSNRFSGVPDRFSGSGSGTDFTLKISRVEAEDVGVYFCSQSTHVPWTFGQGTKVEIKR
2. Hu4F11-75 (antibody, human IgG1, kappa, V domains shown, Humanized, human IgG1 kappa; Hv3-23 A28T T62S heavy + Kv2D-29 N28Y kappa) VH: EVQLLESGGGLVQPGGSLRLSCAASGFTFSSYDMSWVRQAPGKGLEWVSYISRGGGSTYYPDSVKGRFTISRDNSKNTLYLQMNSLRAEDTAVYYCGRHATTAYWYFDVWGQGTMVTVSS VL: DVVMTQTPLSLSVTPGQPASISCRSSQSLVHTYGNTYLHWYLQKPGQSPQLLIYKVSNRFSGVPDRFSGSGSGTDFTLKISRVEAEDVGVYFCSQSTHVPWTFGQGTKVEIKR
3. Hu4F11-79 (antibody, human IgG1, kappa, V domains shown, Humanized, human IgG1 kappa; Hv3-23 A28T T62S heavy + Kv2D-29 N28Q kappa) VH: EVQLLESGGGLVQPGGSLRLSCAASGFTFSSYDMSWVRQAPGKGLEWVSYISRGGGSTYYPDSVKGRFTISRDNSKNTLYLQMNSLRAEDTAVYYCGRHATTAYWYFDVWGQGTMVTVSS VL: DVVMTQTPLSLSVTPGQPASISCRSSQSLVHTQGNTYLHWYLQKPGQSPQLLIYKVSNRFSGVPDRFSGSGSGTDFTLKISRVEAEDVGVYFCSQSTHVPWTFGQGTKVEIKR

Reply:
1. 0.001
2. 0.0026
3. 0.0046
